Just for reference, ChEMBL document CHEMBL1671716 is where these values come from.

tested on: Actinomyces naeslundii; assay: Antimicrobial activity against Actinomyces naeslundii after 48 hrs by agar dilution method; assay type: functional
Label key: Y means MIC50 under 1 µg/mL; N means MIC50 of 1 µg/mL or more.

[
  {
    "molecule": "CO[C@@]1(NC(=O)C2SC(=C(C(N)=O)C(=O)O)S2)C(=O)N2C(C(=O)O)=C(CSc3nnnn3C)CS[C@@H]21 (some centres undefined) [CEFOTETAN]",
    "class_assignment": "N"
  },
  {
    "molecule": "Cc1ncc([N+](=O)[O-])n1CCO [METRONIDAZOLE]",
    "class_assignment": "N"
  },
  {
    "molecule": "C[C@@H](O)[C@H]1C(=O)N2C(C(=O)O)=C(SCCNC=N)C[C@H]12 [IMIPENEM ANHYDROUS]",
    "class_assignment": "Y"
  },
  {
    "molecule": "CCC[C@@H]1C[C@@H](C(=O)N[C@@H]([C@H]2O[C@H](SC)[C@H](O)[C@@H](O)[C@H]2O)[C@H](C)Cl)N(C)C1 [CLINDAMYCIN]",
    "class_assignment": "Y"
  },
  {
    "molecule": "C[C@@H](O)[C@H]1C(=O)N2C(C(=O)O)=C(S[C@@H]3CN[C@H](C(=O)N(C)C)C3)[C@H](C)[C@H]12 [MEROPENEM]",
    "class_assignment": "Y"
  },
  {
    "molecule": "CO[C@@]1(NC(=O)Cc2cccs2)C(=O)N2C(C(=O)O)=C(COC(N)=O)CS[C@@H]21 [CEFOXITIN]",
    "class_assignment": "N"
  }
]
